In this section, each of the molecules is paired with its reported IC50.
Molecular target: Nicotinamide N-methyltransferase (Mus musculus, UniProt O55239)
Sequence (O55239 whole entry): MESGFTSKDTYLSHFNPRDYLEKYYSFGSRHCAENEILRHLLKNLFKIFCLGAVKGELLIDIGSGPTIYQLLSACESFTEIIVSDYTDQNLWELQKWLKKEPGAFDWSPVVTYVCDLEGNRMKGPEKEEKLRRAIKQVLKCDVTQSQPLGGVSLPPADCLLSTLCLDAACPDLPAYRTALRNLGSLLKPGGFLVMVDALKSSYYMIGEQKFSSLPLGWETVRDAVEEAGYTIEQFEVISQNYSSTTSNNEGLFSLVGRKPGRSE
Assay: Inhibition of mouse recombinant NNMT using nicotinamide and SAM as substrate assessed as reduction in 1-methyl-nicotinamide formation incubated for 22 to 24 hrs by RapidFire Mass spectroscopy
Bridge positions count the residues as written; N and C are the ends. Square brackets hold non-standard residues; d marks the D form. Peptide text beside a SMILES is read from it. Pro(cis-4-CF3) = O=C(O)[C@@H]1C[C@H](C(F)(F)F)CN1; Phe(4-CONH2) = NC(=O)c1ccc(C[C@H](N)C(=O)O)cc1; Pro(4,4-F2) = O=C(O)[C@@H]1CC(F)(F)CN1; Lys(Me2) = CN(C)CCCC[C@H](N)C(=O)O; NMeR = CN[C@@H](CCCNC(=N)N)C(=O)O; NMeF = CN[C@@H](Cc1ccccc1)C(=O)O; 3Pal = N[C@@H](Cc1cccnc1)C(=O)O; Tic = O=C(O)[C@@H]1Cc2ccccc2CN1

1. CC(C)C[C@@H]1NC(=O)[C@@H]2C[C@H](C(F)(F)F)CN2C(=O)[C@H](Cc2ccccc2)NC(=O)CSC[C@@H](C(N)=O)NC(=O)[C@H](Cc2ccc(C(N)=O)cc2)NC(=O)[C@@H]2Cc3ccccc3CN2C(=O)[C@@H]2CCCN2C(=O)[C@H](CCCCN)NC1=O ({CH2CO}-F[Pro(cis-4-CF3)]LKP[Tic][Phe(4-CONH2)]C-NH2; thioether N-8): 0.214 µM
2. CN1C(=O)[C@H](Cc2ccc(O)cc2)NC(=O)[C@@H]2CCCN2C(=O)[C@H](Cc2ccccc2)NC(=O)CSC[C@@H](C(N)=O)NC(=O)[C@H](Cc2ccc(C(N)=O)cc2)NC(=O)[C@@H]2Cc3ccccc3CN2C(=O)[C@@H]2CCCN2C(=O)[C@@H]1CCCNC(=N)N ({CH2CO}-FPY[NMeR]P[Tic][Phe(4-CONH2)]C-NH2; thioether N-8): 0.277 µM
3. CN(C)CCCC[C@@H]1NC(=O)[C@H](Cc2ccc(O)cc2)NC(=O)[C@@H]2CCCN2C(=O)[C@H](Cc2ccccc2)N(C)C(=O)CSC[C@@H](C(N)=O)NC(=O)[C@H](Cc2ccc(C(N)=O)cc2)NC(=O)[C@@H]2Cc3ccccc3CN2C(=O)[C@@H]2CCCN2C1=O ({CH2CO}-[NMeF]PY[Lys(Me2)]P[Tic][Phe(4-CONH2)]C-NH2; thioether N-8): 1.35 µM

**Query** # get_value(readout= IC50, system= Nicotinamide N-methyltransferase (Mus musculus, UniProt O55239)) for CN1C(=O)CSC[C@@H](C(N)=O)NC(=O)[C@H](Cc2ccc(C(N)=O)cc2)NC(=O)[C@@H]2Cc3ccccc3CN2C(=O)[C@@H]2CCCN2C(=O)[C@H](Cc2c[nH]cn2)NC(=O)[C@H](Cc2ccc(O)cc2)NC(=O)[C@@H]2CCCN2C(=O)[C@@H]1Cc1ccccc1 ({CH2CO}-[NMeF]PYHP[Tic][Phe(4-CONH2)]C-NH2; thioether N-8)
**Result** > 100 µM

**Query** Record: CC(C)C[C@@H]1NC(=O)[C@@H]2CCCN2C(=O)[C@H](Cc2ccccc2)N(C)C(=O)CSC[C@@H](C(N)=O)NC(=O)[C@H](Cc2ccc(C(N)=O)cc2)NC(=O)[C@@H]2Cc3ccccc3CN2C(=O)[C@@H]2CCCN2C(=O)[C@H](CCCNC(=N)N)NC1=O ({CH2CO}-[NMeF]PLRP[Tic][Phe(4-CONH2)]C-NH2; thioether N-8)
**Result** 0.096 µM

**Query** Then what about the molecule CC(C)C[C@@H]1NC(=O)[C@@H]2CCCN2C(=O)[C@H](Cc2ccccc2)NC(=O)CSC[C@@H](C(N)=O)NC(=O)[C@H](Cc2ccc(C(N)=O)cc2)NC(=O)[C@@H]2Cc3ccccc3CN2C(=O)[C@@H]2CCCN2C(=O)[C@H](CCCCN)NC1=O ({CH2CO}-FPLKP[Tic][Phe(4-CONH2)]C-NH2; thioether N-8) ?
**Result** 0.04 µM

**Query** Also check CC(C)C[C@@H]1NC(=O)[C@@H]2CC(F)(F)CN2C(=O)[C@H](Cc2ccccc2)NC(=O)CSC[C@@H](C(N)=O)NC(=O)[C@H](Cc2ccc(C(N)=O)cc2)NC(=O)[C@@H]2Cc3ccccc3CN2C(=O)[C@@H]2CCCN2C(=O)[C@H](CCCCN)NC1=O ({CH2CO}-F[Pro(4,4-F2)]LKP[Tic][Phe(4-CONH2)]C-NH2; thioether N-8)
**Result** 0.018 µM

**Query** What would you report for CN1C(=O)CSC[C@@H](C(N)=O)NC(=O)[C@H](Cc2ccc(C(N)=O)cc2)NC(=O)[C@@H]2Cc3ccccc3CN2C(=O)[C@@H]2CCCN2C(=O)[C@H](Cc2cccnc2)NC(=O)[C@H](Cc2ccc(O)cc2)NC(=O)[C@@H]2CCCN2C(=O)[C@@H]1Cc1ccccc1 ({CH2CO}-[NMeF]PY[3Pal]P[Tic][Phe(4-CONH2)]C-NH2; thioether N-8) ?
**Result** > 100 µM
